# System: gentamicin entry into hair cells
# Assay overview: Gentamicin-conjugated Texas Red (GTTR) uptake imaging
# Format: in vivo, zebrafish (Danio rerio)
# Protocol conditions: protective drug at optimal dose; 50 uM GTTR for 3 min
Structures can show the parent of a compound that is named as a salt.
Endpoint name: Uptake (whether gentamicin is able to enter cells in the presence of protective drug)

{"Molecule": "CC(CCc1ccc(O)cc1)NCC(O)c1ccc(O)cc1 (centres unmarked) [Ractopamine]", "Study target": "gentamicin entry into hair cells", "Observed result": "block"}
{"Molecule": "O=C(c1ccc(OCCN2CCCCC2)cc1)c1c(-c2ccc(O)cc2)sc2cc(O)ccc12 [Raloxifene HCl]", "Study target": "gentamicin entry into hair cells", "Observed result": "block"}
{"Molecule": "O=C1NCN(c2ccccc2)C12CCN(CCCC(c1ccc(F)cc1)c1ccc(F)cc1)CC2 [Fluspirilene]", "Study target": "gentamicin entry into hair cells", "Observed result": "no block"}
{"Molecule": "CC/C(=C(\\c1ccccc1)c1ccc(OCCN(C)C)cc1)c1ccccc1 [Tamoxifen citrate]", "Study target": "gentamicin entry into hair cells", "Observed result": "no block"}

Data origin, for the record: patent US20110135756A1
